The reported measurements were obtained from patent US7105551B2.

Molecular target: hPPAR δ (Homo sapiens, UniProt Q03181)
Sequence (Q03181 211-439 limits assumed): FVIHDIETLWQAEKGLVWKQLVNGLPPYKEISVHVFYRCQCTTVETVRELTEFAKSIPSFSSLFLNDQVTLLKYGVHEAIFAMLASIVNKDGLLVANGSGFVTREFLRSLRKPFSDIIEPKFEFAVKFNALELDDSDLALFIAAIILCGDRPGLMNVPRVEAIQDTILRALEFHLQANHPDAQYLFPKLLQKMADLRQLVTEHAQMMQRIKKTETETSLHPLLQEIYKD
Assay: Transient transfection (transactivation) assay in CV-1 cells, hPPAR delta
Conditions: GAL4 chimeric receptor, SPAP reporter
Measured pEC50, listed per entry for reference.
# pEC50 = -log10(concentration in molar units)

See these solved cases before continuing.
• CC[C@@H](Oc1ccc(OC(C)(C)C(=O)O)c(C)c1)c1sc(-c2ccc(C(F)(F)F)cc2)nc1C = 8.82
• Cc1cc(O[C@H](C)c2sc(-c3ccc(C(F)(F)F)cc3)nc2C)ccc1OC(C)(C)C(=O)O = 9.15
• CC[C@H](Oc1ccc(OC(C)(C)C(=O)O)c(C)c1)c1sc(-c2ccc(C(F)(F)F)cc2)nc1C = 8.77

# ---- query molecule ----
**Query** Using the record for Cc1cc(O[C@@H](C)c2sc(-c3ccc(C(F)(F)F)cc3)nc2C)ccc1OC(C)(C)C(=O)O , report its pEC50.
**Result** 8.52

====

target: hPPAR γ (Homo sapiens, UniProt P37231); experiment: Transient transfection (transactivation) assay in CV-1 cells, hPPAR gamma; conditions: GAL4 chimeric receptor, SPAP reporter
Sequence (P37231 238-503 limits assumed): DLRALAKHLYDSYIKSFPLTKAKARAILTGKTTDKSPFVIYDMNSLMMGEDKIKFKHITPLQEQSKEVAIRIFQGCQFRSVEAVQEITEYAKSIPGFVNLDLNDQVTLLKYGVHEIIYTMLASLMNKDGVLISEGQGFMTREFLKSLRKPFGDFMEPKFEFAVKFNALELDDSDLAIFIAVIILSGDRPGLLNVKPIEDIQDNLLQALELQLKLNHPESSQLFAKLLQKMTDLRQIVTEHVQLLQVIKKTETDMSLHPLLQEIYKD
quantity: pEC50
Reminder that pEC50 means the negative base-10 logarithm of the concentration expressed in mol/L.

Record excerpt, results attached:
- CC[C@@H](Oc1ccc(OC(C)(C)C(=O)O)c(C)c1)c1sc(-c2ccc(C(F)(F)F)cc2)nc1C [Example 29]: 6.62
- CC[C@H](Oc1ccc(OC(C)(C)C(=O)O)c(C)c1)c1sc(-c2ccc(C(F)(F)F)cc2)nc1C [Example 31]: 6.18
- Cc1cc(O[C@@H](C)c2sc(-c3ccc(C(F)(F)F)cc3)nc2C)ccc1OC(C)(C)C(=O)O [Example 9]: 5.15

// next entry
**Query** // query pEC50 value for entry Cc1cc(O[C@H](C)c2sc(-c3ccc(C(F)(F)F)cc3)nc2C)ccc1OC(C)(C)C(=O)O [Example 11]
**Result** 6.52

====

Molecular target: UniProtKB Q07869
Sequence (Q07869 239-466 limits assumed): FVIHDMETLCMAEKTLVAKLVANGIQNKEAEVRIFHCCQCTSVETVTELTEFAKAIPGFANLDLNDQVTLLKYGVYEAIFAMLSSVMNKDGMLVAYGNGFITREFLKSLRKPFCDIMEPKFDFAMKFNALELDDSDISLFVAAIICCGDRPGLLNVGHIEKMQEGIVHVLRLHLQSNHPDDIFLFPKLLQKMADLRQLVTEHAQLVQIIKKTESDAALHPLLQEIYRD
Test: Transient transfection (transactivation) assay in CV-1 cells, hPPAR alpha
Settings: GAL4 chimeric receptor, SPAP reporter
Description: Compounds were screened for functional potency in transient transfection assays in CV-1 cells for their ability to activate the PPAR subtypes (transactivation assay). A previously established chimeric receptor system was utilized to allow comparison of the relative transcriptional activity of the receptor subtypes on the same target gene and to prevent endogenous receptor activation from complicating the interpretation of results. […]
EC50 values by entry
# number then unit; no other words

In the examples that follow, each entry is paired with its recorded EC50.
• CC[C@H](Oc1ccc(OC(C)(C)C(=O)O)c(C)c1)c1sc(-c2ccc(C(F)(F)F)cc2)nc1C [Example 31] = 5 nM
• Cc1cc(O[C@H](C)c2sc(-c3ccc(C(F)(F)F)cc3)nc2C)ccc1OC(C)(C)C(=O)O [Example 11] = 10 nM
• Cc1cc(O[C@@H](C)c2sc(-c3ccc(C(F)(F)F)cc3)nc2C)ccc1OC(C)(C)C(=O)O [Example 9] = 16 nM

Consider the record given below.
**Query** Form field: reported EC50 of CC[C@@H](Oc1ccc(OC(C)(C)C(=O)O)c(C)c1)c1sc(-c2ccc(C(F)(F)F)cc2)nc1C [Example 29]
**Result** 9 nM
